# credit: the supplement of paper PMC10567573

The variants listed here are annotated with their protein stability index.
B1: POMT2 (parent)
chain: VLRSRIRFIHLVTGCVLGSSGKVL

variants of: B1; experiment: protein stability index of a GFP-peptide fusion (GPS, HEK-293T) (PSI 1-6); higher = more stable; conditions: c terminus: a fixed tail appended;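 further: lentivirally expressed fusions sorted by FACS into six bins by GFP to DsRed ratio, PSI derived from sequencing read proportions per bin multiplied by bin number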
Please reply with the value in numeric form only.

mutationlabel=R5T numericreadout=1.99

Could you share which protein stability index value was measured for `S19W` ?
2.66

Could you share which protein stability index value was measured for `H10C` ?
2.67

Could you share which protein stability index value was measured for `I9D` ?
1.63
